- tgt: Cynomolgus monkey CD1a protein (Cynomolgus monkey)
- test_name: ELISA, Ab 0.01 µg/ml
assay_metric: Optical Density (OD)
Give your result in OD as a bare value.

Below, each entry is followed by its recorded Optical Density (OD) result.
{"columns": ["binder", "Optical Density (OD)"],
 "data": [
  ["111 (VR12113) (antibody, V domains shown, also called OX111) VH: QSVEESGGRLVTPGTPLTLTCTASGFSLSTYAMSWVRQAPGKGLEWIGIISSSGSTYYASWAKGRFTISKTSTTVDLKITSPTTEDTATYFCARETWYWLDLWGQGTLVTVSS VL: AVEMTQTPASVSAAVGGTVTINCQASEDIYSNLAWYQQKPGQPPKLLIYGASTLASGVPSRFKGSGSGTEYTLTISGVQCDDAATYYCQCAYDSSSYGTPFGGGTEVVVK", 0.48],
  ["77A (VR11851) (antibody, V domains shown, V regions were 'cloned as either rabbit or mouse full length antibodies'; also called OX77a; antibody 77a) VH: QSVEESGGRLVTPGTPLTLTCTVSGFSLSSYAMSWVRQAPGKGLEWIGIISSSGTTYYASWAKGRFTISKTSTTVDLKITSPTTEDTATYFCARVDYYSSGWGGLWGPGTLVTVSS VL: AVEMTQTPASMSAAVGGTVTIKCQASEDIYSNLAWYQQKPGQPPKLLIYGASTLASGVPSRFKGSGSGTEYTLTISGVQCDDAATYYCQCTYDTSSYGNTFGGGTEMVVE", 0.1],
  ["116 (VR12117) (antibody, V domains shown, also called OX116) VH: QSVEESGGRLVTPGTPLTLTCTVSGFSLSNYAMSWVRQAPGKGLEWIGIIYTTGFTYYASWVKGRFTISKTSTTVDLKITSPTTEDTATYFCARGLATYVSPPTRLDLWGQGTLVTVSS VL: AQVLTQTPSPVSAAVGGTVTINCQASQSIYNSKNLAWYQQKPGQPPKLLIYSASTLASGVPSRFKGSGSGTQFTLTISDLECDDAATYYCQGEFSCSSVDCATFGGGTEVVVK", 0.07]
]}

# next binder below
input: Check the records and state Optical Density (OD) for 110 (VR12112) (antibody, V domains shown, V regions were 'cloned as either rabbit or mouse full length antibodies'; also called OX110; antibody 110) VH: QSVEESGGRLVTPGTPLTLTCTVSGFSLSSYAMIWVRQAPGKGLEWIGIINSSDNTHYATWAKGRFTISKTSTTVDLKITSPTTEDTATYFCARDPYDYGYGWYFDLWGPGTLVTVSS VL: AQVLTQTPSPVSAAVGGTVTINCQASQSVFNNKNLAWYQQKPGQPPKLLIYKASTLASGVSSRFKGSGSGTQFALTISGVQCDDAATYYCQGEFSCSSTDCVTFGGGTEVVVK
output: 0.22
